- PROCEDURE SUMMARY: Cytotoxicity against MDCK cells
- Assay type: cell-based, Canis lupus familiaris
- CONDITIONS: dog, read-out: TC50 (the source's name)

COMPOUND | CC50
C/C=C/C[C@@H](C)[C@@H](O)[C@H]1C(=O)N[C@@H](CC)C(=O)N(C)[C@H](C)C(=O)N(CC)[C@@H](C(C)C)C(=O)N[C@@H](C(C)C)C(=O)N(C)[C@@H](CC(C)C)C(=O)N[C@@H](C)C(=O)N[C@H](C)C(=O)N(C)[C@@H](CC(C)C)C(=O)N(C)[C@@H](CC(C)C)C(=O)N(C)[C@@H](C(C)C)C(=O)N1C [ALISPORIVIR] | 9.9 µM
